Hey, just so you know, these numbers are from ChEMBL document CHEMBL1147445.

protocol-text: in vivo
condition-label: rat
Quick rule for you: half-life at 50 min or higher means 1.0, lower means 0.0.

Use the examples below as a reference point.
1) CCn1nc(Cc2ccccc2)cc1C1CCN(C[C@H]2CN([C@H](CC3CCC3)C(=O)O)C[C@@H]2c2cccc(F)c2)CC1: 0.0
2) CCn1nc(Cc2ccccc2)cc1C1CCN(C[C@H]2CN([C@H](CC3CC3)C(=O)O)C[C@@H]2c2cccc(F)c2)CC1: 0.0
3) CCC(CC)[C@H](C(=O)O)N1C[C@H](CN2CCC(c3cc(Cc4ccccc4)nn3CC)CC2)[C@@H](c2cccc(F)c2)C1: 0.0
4) CCn1nc(Cc2ccccc2)cc1C1CCN(C[C@H]2CN([C@@H](C(=O)O)C(C)(C)C)C[C@@H]2c2cccc(F)c2)CC1: 0.0
5) CCn1nc(Cc2ccccc2)cc1C1CCN(C[C@H]2CN([C@@H](C(=O)O)C(C)C)C[C@@H]2c2ccccc2)CC1: 1.0

In: Does half-life meet or surpass 50 min for `CCn1nc(Cc2ccccc2)cc1C1CCN(C[C@H]2CN([C@](C)(C(=O)O)C(C)C)C[C@@H]2c2cccc(F)c2)CC1` ?
Out: 0.0

In: Does half-life meet or surpass 50 min for `CCn1nc(Cc2ccccc2)cc1C1CCN(C[C@H]2CN([C@H](CC(C)C)C(=O)O)C[C@@H]2c2ccccc2)CC1` ?
Out: 1.0
